Target: human MC4R receptor (human, UniProt P32245 1-332)
Sequence (P32245 whole entry): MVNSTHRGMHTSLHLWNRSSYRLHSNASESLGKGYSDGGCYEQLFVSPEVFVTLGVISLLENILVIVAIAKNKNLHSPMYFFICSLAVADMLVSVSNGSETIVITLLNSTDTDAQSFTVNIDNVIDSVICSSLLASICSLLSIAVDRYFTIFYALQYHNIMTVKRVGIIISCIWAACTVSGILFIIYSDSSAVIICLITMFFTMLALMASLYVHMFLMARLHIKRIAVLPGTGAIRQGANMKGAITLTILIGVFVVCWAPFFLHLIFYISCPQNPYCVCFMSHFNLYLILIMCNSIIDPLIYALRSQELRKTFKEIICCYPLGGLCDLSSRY
Experiment: cell-based or functional assay
Positions of bridges follow the written chain, without caps; N, C: chain ends. Non-standard residues stand in square brackets, D forms with d. Cit = NC(=O)NCCC[C@H](N)C(=O)O
I'd be grateful if you could share measured MC4R selectivity vs MC3R for these entries.
Returns: the value as a bare number; no unit string appended.

// lookup MC4R selectivity vs MC3R for {CH2CO}-G[Cit][dF]RWC-NH2 (thioether N-6; SMILES N=C(N)NCCC[C@@H]1NC(=O)[C@@H](Cc2ccccc2)NC(=O)[C@H](CCCNC(N)=O)NC(=O)CNC(=O)CSC[C@@H](C(N)=O)NC(=O)[C@H](Cc2c[nH]c3ccccc23)NC1=O) [CTX-1646]
193

// lookup MC4R selectivity vs MC3R for Ac-RCAR[dF]R[dW]C-NH2 (disulfide 2-8) [CTX-1268]
30
